Target: T1, ETS1 ΔN279 (UniProt P14921 279-441)
T1 sequence: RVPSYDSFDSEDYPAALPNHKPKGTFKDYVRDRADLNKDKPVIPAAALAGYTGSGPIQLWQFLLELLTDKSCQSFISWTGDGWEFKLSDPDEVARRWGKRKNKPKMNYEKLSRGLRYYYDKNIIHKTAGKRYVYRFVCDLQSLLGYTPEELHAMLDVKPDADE
Assay: EMSA
metric.name: Kd

Entry SC1 (dsDNA) DNA 1: TCGACGGCCAAGCCGGAAGTGAGTGCC DNA 2: TCGAGGCACTCACTTCCGGCTTGGCCG ; Kd = 0.4 nM
